Tested on: Candida albicans
Experiment: Antifungal activity against Candida albicans MTCC 227 after 24 hr by paper disk method
Type: functional
Details: MTCC 227, 24 h
Outcome Measure: MIC (µg/mL)
Kindly provide the numeric value in µg/mL only, without the unit symbol.

Lab note: measured MIC of "CCOC(=O)Cn1c(C(F)(F)C(F)(F)F)nc2ccc(C(=O)c3ccccc3)cc21" was 700

The recorded MIC for "C#CCn1c(C(F)(F)F)nc2cc([N+](=O)[O-])ccc21" is 700

Record summary for "CCOC(=O)Cn1c(C(F)(F)C(F)(F)F)nc2cc([N+](=O)[O-])ccc21" : reported MIC = 800

MIC measured on "CCOC(=O)Cn1c(C(F)(F)C(F)(F)F)nc2ccc([N+](=O)[O-])cc21" = 900

// recorded MIC for "O=[N+]([O-])c1ccc2nc(C(F)(F)C(F)(F)F)n(CCCCCl)c2c1" : 800

What the record says about "O=[N+]([O-])c1ccc2c(c1)nc(C(F)(F)F)n2CCCCl" : MIC is 300

Entry "O=[N+]([O-])c1ccc2c(c1)nc(C(F)(F)F)n2CCCCCl" ; MIC = 500

For this molecule ( "C#CCn1c(C(F)(F)F)nc2ccc([N+](=O)[O-])cc21" ), measured MIC is 600

* * *

Provide the recorded MIC for the entries that follow.
System: Bacillus subtilis
Assay: Antibacterial activity against Bacillus subtilis NCIM 2921 after 18 to 20 hr by plate method
Assay type: functional

What the record says about "O=[N+]([O-])c1ccc2c(c1)nc(C(F)(F)F)n2CCCCCl" : MIC is 750 µg/mL

// MIC lookup, molecule = "O=[N+]([O-])c1ccc2nc(C(F)(F)F)n(CCCCl)c2c1" , result: 300 µg/mL

Just so you know, measured MIC for "O=[N+]([O-])c1ccc2c(c1)nc(C(F)(F)F)n2CCCCl" came out at 350 µg/mL

Short answer for "CCOC(=O)Cn1c(C(F)(F)F)nc2ccc([N+](=O)[O-])cc21" : MIC was 950 µg/mL

Reported MIC ( "O=[N+]([O-])c1ccc2nc(C(F)(F)F)n(CCCCCl)c2c1" ) = 700 µg/mL

Consider "CCOC(=O)Cn1c(C(F)(F)F)nc2cc([N+](=O)[O-])ccc21" . Its measured MIC is 800 µg/mL

The recorded MIC for "CCOC(=O)Cn1c(C(F)(F)C(F)(F)F)nc2cc(C(=O)c3ccccc3)ccc21" is 900 µg/mL

Value of MIC reported for the molecule "CCOC(=O)Cn1c(C(F)(F)C(F)(F)F)nc2ccc(C(=O)c3ccccc3)cc21" is 850 µg/mL

* * *

System: Candida albicans
Assay: Antifungal activity against Candida albicans MTCC 227 after 24 hr by paper disk method
Assay type: functional
Conditions: MTCC 227, 24 h
Outcome Measure: MIC (µg/mL)
Provide only the numeric value, understood in µg/mL.

// sample "CCn1c(C(F)(F)F)nc2cc([N+](=O)[O-])ccc21" , its MIC was 700

// "CCn1c(C(F)(F)F)nc2ccc([N+](=O)[O-])cc21" : MIC value = 900

The measured MIC associated with "O=[N+]([O-])c1ccc2c(c1)nc(C(F)(F)C(F)(F)F)n2CCCCCl" reads 700

Value of measured MIC for the entry "CCOC(=O)Cn1c(C(F)(F)C(F)(F)F)nc2cc(C(=O)c3ccccc3)ccc21" : 700

Per the records, this molecule ( "O=[N+]([O-])c1ccc2nc(C(F)(F)F)n(CCCCl)c2c1" ) has MIC equal to 400

Form: molecule = "O=[N+]([O-])c1ccc2nc(C(F)(F)F)n(CCCCCl)c2c1" ; MIC = 600

Recorded result, "CCOC(=O)Cn1c(C(F)(F)F)nc2ccc([N+](=O)[O-])cc21" , MIC: 450

Please fill in: MIC reported for "CCOC(=O)Cn1c(C(F)(F)F)nc2cc([N+](=O)[O-])ccc21" = 400

molecule "CCOC(=O)Cn1c(C(F)(F)F)nc2cc(C(=O)c3ccccc3)ccc21" , MIC observed: 500

Notebook: "CCOC(=O)Cn1c(C(F)(F)F)nc2ccc(C(=O)c3ccccc3)cc21" , MIC read as 400

* * *

Hi there, I'd appreciate the recorded MIC for every entry that follows.
Tested on: Saccharomyces cerevisiae
Test: Antifungal activity against Saccharomyces cerevisiae MTCC 36 after 24 hr by paper disk method
Type: functional
Details: MTCC 36, 24 h
Your answer should be a plain number; it is taken to be in µg/mL.

Value of MIC reported for the compound "CCOC(=O)Cn1c(C(F)(F)F)nc2ccc(C(=O)c3ccccc3)cc21" is 500

Query "CCOC(=O)Cn1c(C(F)(F)C(F)(F)F)nc2cc(C(=O)c3ccccc3)ccc21" yields MIC of 800

Lookup result for "O=[N+]([O-])c1ccc2c(c1)nc(C(F)(F)F)n2CCCCl" ; measured MIC: 400

"N#CCn1c(C(F)(F)F)nc2ccc([N+](=O)[O-])cc21" has a reported MIC of 900

// "O=[N+]([O-])c1ccc2nc(C(F)(F)C(F)(F)F)n(CCCCCl)c2c1" : MIC value = 750

Reported MIC of "C#CCn1c(C(F)(F)F)nc2ccc([N+](=O)[O-])cc21" : 700

Briefly, MIC measured for "CCOC(=O)Cn1c(C(F)(F)F)nc2cc(C(=O)c3ccccc3)ccc21" : 600

Record summary for "CCn1c(C(F)(F)F)nc2ccc([N+](=O)[O-])cc21" : reported MIC = 800

Note to self: MIC recorded for "O=[N+]([O-])c1ccc2c(c1)nc(C(F)(F)C(F)(F)F)n2CCCCCl" was 750

* * *

Test system: Saccharomyces cerevisiae
Experiment: Antifungal activity against Saccharomyces cerevisiae MTCC 36 after 24 hr by paper disk method
Format: functional
Details: MTCC 36, 24 h
Please go through the items and note down their MIC.
Could you write the number and then its unit?

The compound listed as "C#CCn1c(C(F)(F)F)nc2cc([N+](=O)[O-])ccc21" has a reported MIC of 750 µg/mL

Sample "CCOC(=O)Cn1c(C(F)(F)F)nc2cc([N+](=O)[O-])ccc21" ; MIC observed: 600 µg/mL

The compound listed as "O=[N+]([O-])c1ccc2nc(C(F)(F)F)n(CCCCCl)c2c1" shows MIC equal to 700 µg/mL

Item: "O=[N+]([O-])c1ccc2c(c1)nc(C(F)(F)F)n2CCCCCl" | MIC: 800 µg/mL

Form field MIC, entry "CCOC(=O)Cn1c(C(F)(F)C(F)(F)F)nc2cc([N+](=O)[O-])ccc21" : 900 µg/mL

MIC reading for "CCOC(=O)Cn1c(C(F)(F)C(F)(F)F)nc2ccc([N+](=O)[O-])cc21" : 900 µg/mL

# MIC (compound: "CCOC(=O)Cn1c(C(F)(F)C(F)(F)F)nc2ccc(C(=O)c3ccccc3)cc21" ) is 700 µg/mL

Please fill in: MIC reported for "CCOC(=O)Cn1c(C(F)(F)F)nc2ccc([N+](=O)[O-])cc21" = 600 µg/mL

compound "O=[N+]([O-])c1ccc2nc(C(F)(F)F)n(CCCCl)c2c1" , MIC observed: 500 µg/mL

// MIC lookup, compound = "CCn1c(C(F)(F)F)nc2cc([N+](=O)[O-])ccc21" , result: 850 µg/mL

* * *

Test system: Rhizopus arrhizus
Test: Antifungal activity against Rhizopus oryzae MTCC 262 after 24 hr by paper disk method
Format: functional
Details: MTCC 262, 24 h
Outcome Measure: MIC (µg/mL)
Respond numerically; units are µg/mL and should not be typed.

Tested system Rhizopus arrhizus; MIC recorded for "O=[N+]([O-])c1ccc2nc(C(F)(F)C(F)(F)F)n(CCCCCl)c2c1" was 800

Summary: "CCn1c(C(F)(F)F)nc2ccc([N+](=O)[O-])cc21" , Rhizopus arrhizus, MIC = 850

The compound "CCOC(=O)Cn1c(C(F)(F)C(F)(F)F)nc2cc([N+](=O)[O-])ccc21" , when measured on Rhizopus arrhizus, yielded MIC of 950

Kindly note: Rhizopus arrhizus, "CCOC(=O)Cn1c(C(F)(F)F)nc2cc([N+](=O)[O-])ccc21" , MIC value reported: 600

Form field, MIC with Rhizopus arrhizus, item "N#CCn1c(C(F)(F)F)nc2ccc([N+](=O)[O-])cc21" : 800

With Rhizopus arrhizus as the test system, "O=[N+]([O-])c1ccc2nc(C(F)(F)F)n(CCCCCl)c2c1" showed MIC of 400

# lookup: "CCOC(=O)Cn1c(C(F)(F)F)nc2ccc(C(=O)c3ccccc3)cc21" on Rhizopus arrhizus, MIC = 400
